TEST_PROTOCOL: solvent given as SMILES
COND: in Cc1ccccc1
PROPERTY_LABEL: absorption maximum (nm)
Give just the numeric value; nm need not be written.

- COMPOUND_SMILES: "COc1ccc(C2=C(c3ccc(C)cc3)C(c3ccccc3)=[N+]3C2=Nc2c(-c4ccc(OC)cc4)c(-c4ccc(C)cc4)c(-c4ccccc4)n2[B-]3(F)F)cc1"
  VALUE_REPORTED: 656
- COMPOUND_SMILES: "Cc1csc2[n+]1[B-](F)(F)OC(c1ccc(N(C)C)cc1)=N2"
  VALUE_REPORTED: 407
- COMPOUND_SMILES: "COc1ccc2c(c1)c1cc(OC)ccc1n2-c1nc2ccccc2nc1-n1c2ccc(OC)cc2c2cc(OC)ccc21"
  VALUE_REPORTED: 437
- COMPOUND_SMILES: "CC1(C)c2ccccc2N(c2ccc(-c3cc(-c4ccccc4)nc(-c4ccccc4)n3)cc2)c2ccccc21"
  VALUE_REPORTED: 374.95
- COMPOUND_SMILES: "N#CC(C#N)=C(c1ccc(N(c2ccccc2)c2ccccc2)cc1)c1ccc(N(c2ccccc2)c2ccccc2)cc1"
  VALUE_REPORTED: 374.03

Lookup: # lookup: absorption maximum of CCCCCCCCCCn1cc(C2=C(c3cn(CCCCCCCCCC)c4ccccc34)C(=O)N(C)C2=O)c2ccccc21
Found: 472

Lookup: # lookup: absorption maximum of CCCC1=Cc2nc1ccc1[nH]c(cc1CCC)c1nc(c(N)cc3[nH]c2cc3CCC)C(CCC)=C1
Found: 710

Lookup: # lookup: absorption maximum of CCOC(=O)CN1C(=O)C2=C(c3ccccc3)N(CC(=O)OCC)C(=O)C2=C1c1ccccc1
Found: 462

Lookup: # lookup: absorption maximum of CCC1(CC)c2cc(B(c3c(C)cc(C)cc3C)c3c(C)cc(C)cc3C)ccc2-c2c1c1c(c3c2C(CC)(CC)c2cc(N(c4ccccc4)c4ccccc4)ccc2-3)C(CC)(CC)c2cc(B(c3c(C)cc(C)cc3C)c3c(C)cc(C)cc3C)ccc2-1
Found: 363

Lookup: # lookup: absorption maximum of Cc1ccc(N(c2ccc(C)cc2)c2ccc(-c3ccc(-c4ccc(N(c5ccc(C)cc5)c5ccc(C)cc5)cc4)c4nsnc34)cc2)cc1
Found: 474

Lookup: # lookup: absorption maximum of CC(C)(C)c1ccc2c(c1)c1cc(C(C)(C)C)ccc1n2-c1cccc(-c2nc(-c3cccc(-n4c5ccc(C(C)(C)C)cc5c5cc(C(C)(C)C)ccc54)c3)nc(-c3cccc(P(=O)(c4ccccc4)c4ccccc4)c3)n2)c1
Found: 344.36

Lookup: # lookup: absorption maximum of COc1ccc(-c2csc(/C(C#N)=N\Nc3ccc(C#N)cc3)n2)cc1
Found: 405

Lookup: # lookup: absorption maximum of CCCCCCc1ccc2c3c(ccc2c1)O[B-](c1ccccc1)(c1ccccc1)[N+](c1ccc([N+]2=Cc4c(ccc5cc(CCCCCC)ccc45)O[B-]2(c2ccccc2)c2ccccc2)cc1)=C3
Found: 462

Lookup: # lookup: absorption maximum of Cc1cc(C)c(B(c2ccc(N(c3ccccc3)c3ccccc3)cc2)c2c(C)cc(C)cc2C)c(C)c1
Found: 380

Lookup: # lookup: absorption maximum of CCCCCCCCn1nnc(-c2ccc(C#Cc3ccc(C#Cc4ccc(-c5nnn(CCCCCCCC)n5)cc4)c4nc5c6ccccc6c6ccccc6c5nc34)cc2)n1
Found: 428

Lookup: # lookup: absorption maximum of O=S(=O)(c1ccc(N(c2ccccc2)c2ccccc2)cc1)c1ccc(S(=O)(=O)c2ccc(N(c3ccccc3)c3ccccc3)cc2)cc1
Found: 354
